meta.source: patent US6844347B1

# Lookup of reported melting point keyed by entry

Molecule: CC[S+]([O-])CCNc1cc(C(C)C)nc(-c2ccc(Cl)cc2)n1 (centres unmarked) [Example 147]
melting point [°C]: 103

Molecule: CC(C)c1cc(N2CC[S+]([O-])CC2)nc(-c2cc(Cl)cc(Cl)c2)n1 [Example 149]
melting point [°C]: 187

Molecule: CC(C)c1cc([SH]2(=O)CCNC2)nc(-c2ccc(Cl)cc2)n1 [Example 146]
melting point [°C]: 128

Molecule: Cc1ccc(-c2nc(C(C)C)cc(N3CC[S+]([O-])CC3)n2)cc1 [Example 148]
melting point [°C]: 152

Molecule: CC(C)c1cc(N2CCS(=O)(=O)CC2)nc(-c2ccc(Cl)cc2)n1 [Example 145]
melting point [°C]: 226

---

Catalogue of compounds with associated n-fold stimulation at c = 50 μM
Biological target: soluble guanylate cyclase (sGC) (Bos taurus, UniProt P16068+P19687)
Construct: The sGC employed had been isolated from bovine lung; from tissue; host or cells: bovine lung
Sequence (P19687 whole entry): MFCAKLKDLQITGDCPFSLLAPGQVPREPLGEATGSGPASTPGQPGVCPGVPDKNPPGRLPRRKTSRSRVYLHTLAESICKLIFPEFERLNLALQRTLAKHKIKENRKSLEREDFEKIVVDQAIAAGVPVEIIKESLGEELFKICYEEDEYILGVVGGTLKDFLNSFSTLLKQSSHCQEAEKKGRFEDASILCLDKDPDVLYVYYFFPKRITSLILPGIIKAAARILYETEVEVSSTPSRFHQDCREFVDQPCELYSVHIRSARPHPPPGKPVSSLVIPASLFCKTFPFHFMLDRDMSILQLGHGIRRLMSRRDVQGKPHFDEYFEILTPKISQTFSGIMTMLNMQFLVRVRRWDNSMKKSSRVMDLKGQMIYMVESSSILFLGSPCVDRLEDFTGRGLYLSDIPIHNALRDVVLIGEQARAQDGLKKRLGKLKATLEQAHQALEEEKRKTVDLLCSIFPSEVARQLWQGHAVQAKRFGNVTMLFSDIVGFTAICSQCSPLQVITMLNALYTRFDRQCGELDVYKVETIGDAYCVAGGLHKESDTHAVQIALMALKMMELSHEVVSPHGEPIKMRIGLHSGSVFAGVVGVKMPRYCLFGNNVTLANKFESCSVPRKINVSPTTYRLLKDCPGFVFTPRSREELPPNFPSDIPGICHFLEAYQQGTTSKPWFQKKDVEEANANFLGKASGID
Sequence (P16068 whole entry): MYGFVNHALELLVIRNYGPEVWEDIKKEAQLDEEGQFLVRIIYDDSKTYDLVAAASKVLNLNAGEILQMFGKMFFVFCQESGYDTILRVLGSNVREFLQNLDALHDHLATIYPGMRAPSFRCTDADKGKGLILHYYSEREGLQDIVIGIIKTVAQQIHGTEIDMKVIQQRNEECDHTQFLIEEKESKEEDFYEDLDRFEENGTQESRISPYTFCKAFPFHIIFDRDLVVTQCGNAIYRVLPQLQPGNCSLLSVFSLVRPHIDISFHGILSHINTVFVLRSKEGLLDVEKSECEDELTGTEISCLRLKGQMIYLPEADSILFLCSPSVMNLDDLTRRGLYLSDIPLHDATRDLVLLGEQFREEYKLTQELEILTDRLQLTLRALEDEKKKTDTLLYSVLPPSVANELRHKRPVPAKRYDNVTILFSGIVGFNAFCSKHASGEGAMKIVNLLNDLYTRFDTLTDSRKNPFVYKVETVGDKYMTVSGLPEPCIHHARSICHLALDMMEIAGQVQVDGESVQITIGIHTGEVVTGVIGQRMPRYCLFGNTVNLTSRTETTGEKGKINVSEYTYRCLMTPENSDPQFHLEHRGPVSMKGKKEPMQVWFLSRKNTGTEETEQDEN
Experiment: Activation of soluble guanylate cyclase (cGMP enzyme immunoassay)
Format: biochemical
Conditions: test substance 50 μM; sGC isolated from bovine lung; [cGMP]test substance/[cGMP]control (basal activity with solvent); 37° C., 15 to 20 minutes
Procedure: The activation of soluble guanylate cyclase (sGC), which catalyzes the conversion of guanosine triphosphate (GTP) to cyclic guanosine monophosphate (cGMP) and pyrophosphate, by the compounds according to the invention was quantified with the aid of an enzyme immunoassay (EIA) from Amersham. For this, the test substances were first incubated with sGC in microtiter plates and then the quantity of the resulting cGMP was determined. […]

Test Smiles: CCN(CC)c1cc(C(C)C)nc(-c2ccc(C)cc2)n1.Cl
n-fold stimulation at c = 50 μM: >16 n-fold
--
Test Smiles: CCCCN(CCCC)c1cc(C(C)C)nc(-c2ccc(Cl)cc2)n1.Cl
n-fold stimulation at c = 50 μM: >4 n-fold
--
Test Smiles: CC(C)c1cc(NCCCCO)nc(-c2ccc(Cl)cc2)n1
n-fold stimulation at c = 50 μM: >16 n-fold
--
Test Smiles: Cc1ccc(-c2nc(C(C)C)cc(N3C[C@@H](C)O[C@@H](C)C3)n2)cc1
n-fold stimulation at c = 50 μM: >16 n-fold
--
Test Smiles: CC(C)(C)c1cc(N[C@H]2CC[C@H](O)CC2)nc(-c2ccc(Cl)cc2)n1
n-fold stimulation at c = 50 μM: >16 n-fold
--
Test Smiles: CC(C)c1cc(N2CCC(C(N)=O)CC2)nc(-c2ccc(Cl)cc2)n1
n-fold stimulation at c = 50 μM: >4 n-fold
--
Test Smiles: Cc1ccc(-c2nc(C(C)C)cc(N3CCSCC3)n2)cc1
n-fold stimulation at c = 50 μM: >16 n-fold
--
Test Smiles: COCCCNc1cc(C(C)C)nc(-c2ccc(C)cc2)n1
n-fold stimulation at c = 50 μM: >8 n-fold
--
Test Smiles: CC(C)(C)c1cc(N2CCOCC2)nc(-c2ccc(Cl)cc2)n1
n-fold stimulation at c = 50 μM: >8 n-fold

---

The following molecules are listed with their measured n-fold stimulation at c = 50 μM values.
Target: soluble guanylate cyclase (sGC) (Bos taurus, UniProt P16068+P19687)
Construct: The sGC employed had been isolated from bovine lung; from tissue; host or cells: bovine lung
Assay: Activation of soluble guanylate cyclase (cGMP enzyme immunoassay)
Type: biochemical
Conditions: test substance 50 μM; sGC isolated from bovine lung; [cGMP]test substance/[cGMP]control (basal activity with solvent); 37° C., 15 to 20 minutes

Molecule: Cc1ccc(-c2nc(C(C)C)cc(N3CCOCC3)n2)cc1 [Example 89]
n-fold stimulation at c = 50 μM: >8 n-fold

Molecule: CC(C)c1cc(N2CCOCC2)nc(-c2cc(Cl)cc(Cl)c2)n1 [Example 81]
n-fold stimulation at c = 50 μM: >4 n-fold

Molecule: CCCCNc1cc(C(C)C)nc(-c2cc(Cl)cc(Cl)c2)n1.Cl [Example 79]
n-fold stimulation at c = 50 μM: >4 n-fold

Molecule: Clc1ccc(-c2nc(-c3ccccc3)cc(N3CCCCCC3)n2)cc1 [Example 112]
n-fold stimulation at c = 50 μM: >8 n-fold

Molecule: CCN(CC)c1cc(-c2ccccc2)nc(-c2ccc(Cl)cc2)n1 [Example 63]
n-fold stimulation at c = 50 μM: >4 n-fold

Molecule: CCCN(CCC)c1cc(C(C)C)nc(-c2ccc(Cl)cc2)n1.Cl [Example 35]
n-fold stimulation at c = 50 μM: >16 n-fold

Molecule: COCCN(CCOC)c1cc(C(C)C)nc(-c2ccc(C)cc2)n1 [Example 98]
n-fold stimulation at c = 50 μM: >8 n-fold

Molecule: CC(C)c1cc(NC2CCC(O)CC2)nc(-c2cc(Cl)cc(Cl)c2)n1 (stereo not shown) [Example 77]
n-fold stimulation at c = 50 μM: 30 n-fold

Molecule: CC(C)(C)c1cc(N2CCSCC2)nc(-c2ccc(Cl)cc2)n1 [Example 66]
n-fold stimulation at c = 50 μM: >4 n-fold

Molecule: CC(C)c1cc(N2CCSC2)nc(-c2ccc(Cl)cc2)n1 [Example 45]
n-fold stimulation at c = 50 μM: >4 n-fold

Molecule: CC(C)c1cc(N[C@H]2CC[C@H](O)CC2)nc(-c2ccc(Cl)cc2)n1 [Example 125]
n-fold stimulation at c = 50 μM: 32 n-fold

Molecule: CCN(Cc1ccccc1)c1cc(C(C)C)nc(-c2ccc(Cl)cc2)n1 [Example 43]
n-fold stimulation at c = 50 μM: >4 n-fold

Molecule: CCCCNc1cc(C(C)C)nc(-c2ccc(Cl)cc2)n1 [Example 32]
n-fold stimulation at c = 50 μM: >4 n-fold

Molecule: CCCN(CCC)c1cc(-c2ccccc2)nc(-c2ccc(Cl)cc2)n1 [Example 69]
n-fold stimulation at c = 50 μM: >4 n-fold

Molecule: CCN(CC)c1cc(C(C)C)nc(-c2cc(Cl)cc(Cl)c2)n1 [Example 80]
n-fold stimulation at c = 50 μM: >16 n-fold

Molecule: CC(C)c1cc(N2CCSCC2)nc(-c2ccc(Cl)cc2)n1.Cl [Example 30]
n-fold stimulation at c = 50 μM: >4 n-fold

Molecule: Cc1ccc(-c2nc(C(C)C)cc(N3CCC(C(N)=O)CC3)n2)cc1 [Example 99]
n-fold stimulation at c = 50 μM: >4 n-fold

Molecule: CCCCNc1cc(C(C)C)nc(-c2ccc(C)cc2)n1 [Example 88]
n-fold stimulation at c = 50 μM: >8 n-fold

Molecule: CCN(CC)c1cc(C(C)C)nc(-c2ccc(Cl)cc2)n1 [Example 33]
n-fold stimulation at c = 50 μM: >16 n-fold

Molecule: CCCN(CCC)c1cc(C(C)C)nc(-c2ccc(C)cc2)n1 [Example 85]
n-fold stimulation at c = 50 μM: >16 n-fold

Molecule: Cc1ccc(-c2nc(NC3CCC(O)CC3)cc(C(C)C)n2)cc1 (stereo not shown) [Example 25]
n-fold stimulation at c = 50 μM: 28 n-fold

Molecule: C=CCN(CC=C)c1cc(C(C)C)nc(-c2ccc(Cl)cc2)n1 [Example 36]
n-fold stimulation at c = 50 μM: >8 n-fold

Molecule: CC(C)c1cc(NC2CCCC2)nc(-c2ccc(Cl)cc2)n1 [Example 124]
n-fold stimulation at c = 50 μM: >16 n-fold

Molecule: Cc1ccc(-c2nc(C(C)C)cc(N3CCCCCC3)n2)cc1 [Example 100]
n-fold stimulation at c = 50 μM: >8 n-fold

Molecule: CC(C)c1cc(N2CCCCCC2)nc(-c2ccc(Cl)cc2)n1 [Example 38]
n-fold stimulation at c = 50 μM: >8 n-fold

Molecule: CC(C)c1cc(N2CCSCC2)nc(-c2cc(Cl)cc(Cl)c2)n1 [Example 82]
n-fold stimulation at c = 50 μM: >4 n-fold

Molecule: CCCN(CCC)c1cc(C(C)C)nc(-c2cc(Cl)cc(Cl)c2)n1 [Example 84]
n-fold stimulation at c = 50 μM: >16 n-fold

Molecule: CC(C)c1cc(N2CCCC2)nc(-c2ccc(Cl)cc2)n1.Cl [Example 29]
n-fold stimulation at c = 50 μM: >4 n-fold
